assayed-target: glutathione S-transferase (GST)-linked full-length human Syk protein (Homo sapiens, UniProt P43405)
Measured IC50, listed per entry for reference.

The cases that follow already have their IC50 on record.
[Q] Give its IC50 value. Item: CCn1nc(OC)c2cc(Nc3nc(N[C@H](CC(C)C)[C@H](C)N)c(F)cc3C(N)=O)ccc21
[A] < 10 nM

[Q] # query: IC50 of entry Cc1ncc(Nc2nc(N[C@H](c3ccccc3F)[C@H](C)N)c(F)cc2C(N)=O)cc1-n1nccn1
[A] < 10 nM

[Q] Which IC50 is listed for COCCOc1ncc(Nc2nc(N[C@H](CC(C)C)[C@H](C)N)c(F)cc2C(N)=O)cc1F ?
[A] 10 to 50 nM

[Q] Which value of IC50 has been reported for CC(C)C[C@@H](Nc1nc(Nc2cncc(-n3cccn3)c2)c(C(N)=O)cc1F)[C@H](C)N in the records?
[A] < 10 nM

[Q] Need IC50, item CC[C@H](N)[C@H](Nc1nc(Nc2cnc(C)c(F)c2)c(C(N)=O)cc1F)C1CC1
[A] 10 to 50 nM

***
[Q] Give the measured IC50 of Cc1ncc(Nc2nc(N[C@@H](CN)Cn3cccn3)c(F)cc2C(N)=O)cc1F .
[A] 10 to 50 nM

[Q] Would you mind telling me what IC50 value was observed for CC[C@@H](Nc1nc(Nc2ccc3c(c2)c(NCCOC)nn3CCOC)c(C(N)=O)cc1F)[C@H](C)N ?
[A] 10 to 50 nM

[Q] Which IC50 reading was recorded for the compound CC[C@@H](Nc1nc(Nc2cncc(-n3cc(C)cn3)c2)c(C(N)=O)cc1F)[C@H](C)N ?
[A] 10 to 50 nM

[Q] So what does the record say about IC50 for NC(=O)c1cc(F)c(N[C@@H]2CCCC[C@@H]2N)nc1Nc1cccc(-n2ccnn2)c1 ?
[A] < 10 nM

[Q] Which IC50 value belongs to CC[C@H](N)[C@@H](C)Nc1nc(Nc2ccnc(OCCOC)c2)c(C(N)=O)cc1F ?
[A] 10 to 50 nM

###

pIC50: −log10 of the molar value.
Form: system (glutathione S-transferase (GST)-linked full-length human Syk protein (Homo sapiens)), quantity (pIC50), values below.

[Q] Recorded pIC50 for CC[C@H](N)[C@@H](CC)Nc1nc(Nc2cc(F)c3c(c2)c(OC)nn3C)c(C(N)=O)cc1F , please?
[A] > 8.00

Continuing:
[Q] State the recorded pIC50 for this entry: COCCn1nc(C)c2cc(Nc3nc(N[C@@H](CN)CC(C)C)c(F)cc3C(N)=O)ccc21
[A] > 8.00

[Q] Look up pIC50: COc1nn(C)c2c(F)cc(Nc3nc(N[C@H](CC4CC4)[C@H](C)N)c(F)cc3C(N)=O)cc12
[A] > 8.00

[Q] Given NC(=O)c1cc(F)c(N[C@@H]2CCCC[C@@H]2N)nc1Nc1cnc(-n2ccnn2)c(F)c1 , state its recorded pIC50.
[A] 7.30 to 8.00

[Q] I have this compound here, CC[C@@H](Nc1nc(Nc2ccc3c(c2)c(N(C)C)nn3C)c(C(N)=O)cc1F)[C@H](C)N , and I need its recorded pIC50.
[A] > 8.00

[Q] State the recorded pIC50 for this entry: CCCC[C@@H](Nc1nc(Nc2cccc3c2cnn3CCOC)c(C(N)=O)cc1F)[C@H](C)N
[A] > 8.00

[Q] Which pIC50 is listed for COCCn1ncc2c(Nc3nc(N[C@H](C4CC4)[C@H](C)N)c(F)cc3C(N)=O)cccc21 ?
[A] > 8.00

[Q] Which pIC50 value is on record for C[C@H](N)[C@H](Nc1nc(Nc2cnc(N3CCOCC3)c(F)c2)c(C(N)=O)cc1F)c1ccc(Cl)s1 ?
[A] 7.30 to 8.00

The measurements presented in this section are drawn from patent US9051310B2.
